Ref: PubChem BioAssay (NCATS)

Test: Cell Viability - HUV-EC-C (AID 542);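 also: cells exposed to compound for 40 hours; % is scaled to controls: 0 for no effect and ±100 for the full control effect; nearly all actives have a fitted effect of over 35% in size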
Conditions: HUV-EC-C endothelial cell viability, qHTS; series mostly up to 92.2 µM
Results filed as inconclusive are left out. Active and inactive are the calls of the source. Calls follow the shape of the dose curve; as a rule, active = well fitted cell-killing curve with a large enough effect; inconclusive = small, poorly fitted or top-dose-only effect, or effect the other way; inactive = flat fitted curve, though single readings scatter.
API: response.call in 1 for active, -1 for inactive

compound: C=CC(=O)OCCO
assigned_category: -1

compound: O=[N+]([O-])c1ccccc1O
assigned_category: -1

compound: Nc1ccc([N+](=O)[O-])cc1[N+](=O)[O-]
assigned_category: -1

compound: CCOC(=O)CC(SP(=O)(OC)OC)C(=O)OCC (stereo not drawn)
assigned_category: -1

compound: ClCC(Cl)Cl
assigned_category: -1

compound: C/C=C/CC#N
assigned_category: -1

compound: CCCCC(=O)Cl
assigned_category: -1

compound: C=CC(=O)OCC(C)C
assigned_category: -1

compound: Nc1cccc(Cl)c1
assigned_category: -1

compound: N#CC(Br)Br
assigned_category: -1

Alright, here's another compound for you.
State the result this test recorded for CCCN(CCC)c1c([N+](=O)[O-])cc(C(F)(F)F)cc1[N+](=O)[O-] .
-1

====

Assay: qHTS assay for environmental chemicals that activate the Aryl hydrocarbon Receptor (AhR) signaling pathway (AID 651777); also: % of control where 0% means no effect; nearly all actives have a fitted effect of over 15% in size
Conditions: 1A2-DRE human hepatoma cells, luciferase, 24 h; hits give high values
Records with an inconclusive call do not appear.
readout_kind: activation (%)
Supply the numeric figure in %, leaving out any unit text.

compound: OCCCCO
observed_result: -0.427
//
compound: C=CCO
observed_result: -0.568
//
compound: BrCCc1ccccc1
observed_result: -0.177
//
compound: C=C(Cl)CSC(=S)N(CC)CC
observed_result: 0.101

I am curious: what activation value has been reported for N#C/C(N)=C(/N)C#N ?
0.971

What do you have for CCCCOC(C)=O ?
-0.098

What do you get for N#CC(O)c1ccccc1 (stereo not drawn) ?
0.286

Entry to check: C=CC(=O)OCCN(C)C
0.563

What would you report for ClCCOCOCCCl ?
0.193

====

Assay: MultiTox-Fluor Cytotoxicity Assay - LYMP1-002 - Dead Cells (AID 960); also: nearly all actives have a fitted effect of over 60% in size
Conditions: LYMP1-002 lymphoblastoid cells, dead-cell protease fluorescence; series mostly up to 46.1 µM
From the text: NIH Chemical Genomics Center [NCGC] NIH Molecular Libraries Screening Centers Network [MLSCN] National Institutes of Environmental Health Sciences [NIEHS] National Toxicology Program [NTP] We have developed a 1536-well cell-based assay for quantitative high throughput screening (qHTS) against a number of cell lines to determine in vitro cytotoxicity of small molecules. […] 8. Detection; dead-cell fluorescence (Ex/Em=485/520); EnVision plate reader […]
Records with an inconclusive call do not appear. Active and inactive are the calls of the source. The call rests on the fitted dose curve; in most records, active means well fitted cell-killing curve with a large enough effect; inconclusive means small, poorly fitted or top-dose-only effect, or effect the other way; inactive means no such curve, though single readings can be large or run the other way.
In this exercise, the only acceptable responses are Y = active, N = inactive

Query: recorded result category for O=[N+]([O-])c1ccccc1CCl in this test
N

Same again, this time with CC(C)CON=O
N

Try the molecule Cc1cc(C)cc(OP(=O)(Oc2cc(C)cc(C)c2)Oc2cc(C)cc(C)c2)c1
Y

Please do the same for CCOS(C)(=O)=O as well.
N

How about this molecule: C/C=C/CC#N
N

What do we get for COC(C)(C)C ?
N

Also need CC1CC(=O)O1 (stereo not drawn) , thanks.
N

Okay, and C=CC(=O)OCCN(C)C ?
N

====

Target: Glucocorticoid receptor (Homo sapiens) (UniProt P04150)
Sequence (P04150 whole entry, looked up): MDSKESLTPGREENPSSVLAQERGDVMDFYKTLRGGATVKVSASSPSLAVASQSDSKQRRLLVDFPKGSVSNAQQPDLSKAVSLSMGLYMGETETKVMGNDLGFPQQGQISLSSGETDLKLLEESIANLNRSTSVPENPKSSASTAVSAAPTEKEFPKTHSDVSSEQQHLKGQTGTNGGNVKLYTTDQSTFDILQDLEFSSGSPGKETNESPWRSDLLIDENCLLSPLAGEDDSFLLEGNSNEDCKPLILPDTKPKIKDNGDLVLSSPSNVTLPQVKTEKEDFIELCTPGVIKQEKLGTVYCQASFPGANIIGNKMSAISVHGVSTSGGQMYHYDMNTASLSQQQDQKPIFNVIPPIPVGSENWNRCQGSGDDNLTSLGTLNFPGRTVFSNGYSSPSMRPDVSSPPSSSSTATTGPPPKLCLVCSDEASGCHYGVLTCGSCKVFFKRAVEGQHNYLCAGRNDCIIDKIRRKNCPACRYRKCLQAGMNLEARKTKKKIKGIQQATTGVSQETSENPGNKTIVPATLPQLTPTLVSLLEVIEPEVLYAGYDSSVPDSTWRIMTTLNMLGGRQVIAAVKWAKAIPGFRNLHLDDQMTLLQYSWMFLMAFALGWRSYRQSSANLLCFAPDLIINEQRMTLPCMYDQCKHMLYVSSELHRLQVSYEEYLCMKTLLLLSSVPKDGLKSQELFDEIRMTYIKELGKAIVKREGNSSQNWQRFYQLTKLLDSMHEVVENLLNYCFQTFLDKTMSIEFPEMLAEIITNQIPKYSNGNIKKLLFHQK
Assay: GR-EFC Redistribution (AID 451); also: potency is read from the fitted curve at half-maximal effect
Conditions: CHO-K1 GR-EFC translocation, beta-gal luminescence, 2 h
Calls of active or inactive are those of the source. Calls come from the whole dose curve.
Recorded Potency, one value per entry.

smiles_structure: N[C@H](CCl)C(=O)O
measured_target: Glucocorticoid receptor (Homo sapiens) (UniProt P04150)
readout_kind: Potency
observed_result: > 46 µM (inactive)

What value of Potency on Glucocorticoid receptor (Homo sapiens) (UniProt P04150) does CN1CCN(c2ccc([N+](=O)[O-])c3[nH]o[n+](=O)c23)CC1 have?
> 9.22 µM (inactive)

COC(=O)[C@H](N)CCCN=C(N)N[N+](=O)[O-] , same question.
> 46 µM (inactive)

Ok, now O=C(O)C[C@H]1OCC=C2CN3CC[C@]45c6ccccc6N[C@@H]4[C@H]1[C@H]2C[C@H]35
> 9.22 µM (inactive)

Try CCN=C=NCCCN(C)C next.
> 9.22 µM (inactive)

Quick one: C[C@@]12CC[C@H]3[C@@H](CC=C4C[C@H](OS(=O)(=O)O)CC[C@]43C)[C@H]1CCC2=O
> 46 µM (inactive)

What do we get for CC1(C)N=C(N)N=C(N)N1c1cccc(C(=O)Nc2ccc(S(=O)(=O)F)cc2)c1 ?
> 9.22 µM (inactive)

Subsequent entry: c1csc(CN2CCCC3(CCNCC3)C2)n1
> 46 µM (inactive)

Entry CC(=O)[C@@H]1CC[C@H]2[C@H]3CC[C@H]4C[C@@H](O)CC[C@]4(C)[C@@H]3CC[C@]12C please
> 46 µM (inactive)

Query NS(=O)(=O)c1ccc(-c2ccc([As](=O)(O)O)cc2)cc1 next
> 9.22 µM (inactive)

====

System: HIV-1 nucleocapsid protein NCp7 (binding to TG oligonucleotide)
Experiment: HIV Nucleocapsid (AID 346);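 also: potency is read from the fitted curve at half-maximal effect; potency is for inhibitors that block NC binding and lower polarization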
Settings: HIV-1 NC / fluorescein-TGTGTGTG probe, fluorescence polarization
Experimental: NCGC Assay Overview: HIV-1 nucleocapsid protein (HIV-1 NC) is a small (6.5 kDa) basic zinc-finger protein which participates in packaging of viral genomic RNA. The spacing and metal-chelating residues (3 Cys, 1 His) of the Cys-X2-Cys-X4-His-X4-Cys Zn fingers are conserved among all known retroviruses (J. Med. Chem. 1998, 41, 1371-1381). […] NCGC Assay Protocol Summary: Buffer. […] The plates were incubated for 1 hr at room temperature, and then read on ViewLux (Perkin-Elmer). […]
Calls of active or inactive are those of the source. How the calls were made is not given here.
Pick one: active, inactive

See these solved cases before continuing.
smiles_structure: COC(=O)N1CCC2(CC1)CN(c1ccccn1)C2
assigned_category: inactive
--
smiles_structure: COCCn1c(=O)c(C)nc2cnc(OC)nc21
assigned_category: inactive
--
smiles_structure: Clc1ccccc1-c1nc(-n2ccnc2)c2ccccc2n1
assigned_category: inactive
--
smiles_structure: CCNc1ncc2nc(-c3ccc(Cl)cc3)c(=O)n(-c3ccccc3)c2n1
assigned_category: active
--
smiles_structure: COCCn1c(=O)c(-c2cccc(C#N)c2)nc2cnc(N(C)C)nc21
assigned_category: inactive

Record lookup: outcome of this test for O=c1c(-c2ccccc2)nc2cnc(N3CCOCC3)nc2n1Cc1ccc(F)cc1 ?
inactive

Can you handle COc1ccccc1-c1ccc2ncnc(NCc3ccccc3)c2c1 next?
inactive

Proceed to O=c1c(-c2ccc(F)cc2)nc2cnc(N3CCOCC3)nc2n1Cc1cccs1
inactive

Likewise for COc1ccccc1-c1nccc(Nc2ccc(F)cc2)n1 ?
inactive

Same question, CC(=O)N1CCC2(CCCN(c3ccncc3)C2)CC1 this time
inactive

Another molecule to check: O=c1c(-c2ccccc2)nc2cnc(N3CCOCC3)nc2n1C1CC1
inactive

Okay, and Cc1ccccc1-c1cc(-n2ccnc2)ncn1 ?
inactive

====

Quick reference: activation of the listed items.
Assay: qHTS assay for small molecule activators of the p53 signaling pathway (AID 651743); also: % of control where 0% means no effect
Conditions: HCT-116 p53RE-bla, beta-lactamase FRET ratio, 16 h; hits give high values
Description: National Center for Advancing Translational Sciences [NCATS] NIH Chemical Genomics Center [NCGC] U.S. Environmental Protection Agency [EPA] National Institutes of Environmental Health Sciences [NIEHS] National Toxicology Program [NTP] Assay Overview: p53, a tumor suppressor protein, is activated following cellular insult, including DNA damage and other cellular stresses. […] The activation of the report gene under culture conditions can be detected by fluorescence intensity. […]
Inconclusive results are not listed.
Just the number in %, nothing appended.

molecule: ClC(Br)Br
reading_unit: %
observed_result: 6.47

Which measured activation value corresponds to O=[N+]([O-])c1ccccc1-c1ccccc1 ?
-1.36

Can you handle O=C(O)C(Br)CBr (configuration not stated) next?
3.2

// repeat for ClCCOCOCCCl and report
-4.18

Can you handle Oc1cccc(Cl)c1 next?
0.857

And the next one, CC(C)Br ?
-2.41

====

Test: qHTS assay for small molecule agonists of the antioxidant response element (ARE) signaling pathway measured by Nrf2-dependant transcriptional activity - cell viability counter screen (AID 720653); also: % is scaled to controls: 0 for no effect and ±100 for the full control effect
Conditions: ARE-bla HepG2 viability, CellTiter-Glo ATP luminescence, 16 h; hits give low values
Inconclusive results are not listed.
Below, each entry is listed alongside its reported max response.
Kindly provide the numeric value in % only, without the unit symbol.

Find the recorded max response belonging to O=C(O)C(Br)Br and report it.
-17.6

What would you report for CCOC(=O)C1OC1(C)c1ccccc1 (configuration not stated) ?
-18.9

Now try Nc1ccc(-c2ccccc2)cc1 .
5.56

Can you handle C=CC(=O)OCCN(C)C next?
5.35

Can you check O=NN1CCCCC1 next?
-0.59

Same lookup for N#CCc1ccccc1 , please.
-1.59

Record: O=C(O)C(Cl)Br (configuration not stated)
3.95

What do we get for C/C=C/CC#N ?
-11.2

// repeat for O=C(Cc1ccccc1)OCc1ccccc1 and report
-10.2

Can you check O=C(Cl)c1ccccc1F next?
6.36

What would you report for CCN(CC)CCO ?
-6.79

Lookup Clc1ccccc1
-18.9

Then CC(C)(Cl)[N+](=O)[O-] ?
-1.78
